# Test system: SF-295 CNS
# assay_method_text: NCI-60 one-dose screen, 48 h
# condition_summary: 10 µM unless noted
Compounds without any hit were thinned out: in the full panel of roughly 83,000, 20% have a hit. Activity calls are given as the source filed them. The calls were made as follows: active = growth percent below 10; inactive = the rest.
A correct response names exactly one class from active, inactive

Before answering, review these 2 worked examples.
>>> label_value("NNc1ncnc2nc[nH]c12")
"inactive"
>>> label_value("OCc1cccnc1")
"inactive"

Exercise: Please share the test call associated with CSc1cnc2ccccc2n1 .
Key: inactive

Exercise: Try CC(=O)c1cccc(N(C)S(=O)(=O)c2ccc(C)cc2)c1 next.
Key: inactive

Exercise: Try O=C(NCc1ccco1)Nc1cccc2c(NC(=O)NCc3ccco3)cccc12 next.
Key: inactive

Exercise: Param item: C[n+]1cc2cc3c(cc2c2ccccc21)OCO3
Key: active

Exercise: Next entry: O=C(Nc1cccc(Cl)c1)c1ccc(Cl)cc1Cl
Key: inactive

Entry source: PubChem BioAssay (NCI)
